Reference for the values: patent US20230116703A1

assay.explanation: Metabolic stability in mouse liver microsomes (MLM)
Assay type: in vitro ADME
test.parameters: mouse, pooled mouse liver microsomes, pH 7.4, MLM (CD-1), 0.50 mg protein per mL
microsomal CLint at 1 μM listing for selected molecules.

Task item: Report microsomal CLint at 1 μM for CCCN1C[C@@H](C(=O)N[C@H](C)CC)C=C2c3cccc4[nH]cc(c34)C[C@H]21 [Compound 3a] please.
Reply: 2490 µL/min/mg

Task item: Return reported microsomal CLint at 1 μM; argument: CCN(CC)C(=O)[C@@H]1C=C2c3cccc4[nH]cc(c34)C[C@H]2N(C)C1 [LSD, lysergic acid diethylamide, reference compound]
Reply: 44.2 µL/min/mg

Task item: I have this molecule here, CCN(CC)C(=O)[C@@H]1C=C2c3cccc4[nH]cc(c34)C[C@H]2N(Cc2ccccc2OC)C1 [Compound 10] , and I need its recorded microsomal CLint at 1 μM.
Reply: 1400 µL/min/mg

Task item: Recorded microsomal CLint at 1 μM for CC[C@@H](C)NC(=O)[C@@H]1C=C2c3cccc4[nH]cc(c34)C[C@H]2N(C)C1 [Int8] , please?
Reply: 34.7 µL/min/mg

Task item: For the molecule C[C@H]1C[C@H](C)N1C(=O)[C@@H]1C=C2c3cccc4[nH]cc(c34)C[C@H]2N(C)C1 [Int11] , what microsomal CLint at 1 μM is on record?
Reply: 100 µL/min/mg

Task item: So what's the measured microsomal CLint at 1 μM for this one? CCN(CC)C(=O)[C@@H]1C=C2c3cccc4[nH]cc(c34)C[C@H]2N(CCc2ccccn2)C1 [Compound 23]
Reply: 769 µL/min/mg

Task item: Field request: microsomal CLint at 1 μM | item: CC[C@@H](C)NC(=O)[C@H]1C=C2c3cccc4[nH]cc(c34)C[C@H]2N(C)C1 [Int8a]
Reply: 843 µL/min/mg
